experiment: in vitro; settings: hamster
Consider the cut-off 90 µM. If the recorded CC50 is strictly smaller, the label is 1; if not, the label is -1.

Please review the entries below; each comes with its answer.
compound	category label
COc1cc([C@@H]2c3cc4c(cc3[C@H](O)[C@H]3COC(=O)[C@@H]23)OCO4)cc(OC)c1OC	-1
COc1cc(C2OCC3C(c4cc(OC)c(OC5OC(CO)C(O)C(O)C5O)c(OC)c4)OCC23)cc(OC)c1OC1OC(CO)C(O)C(O)C1O (stereo not drawn) [Eleutheroside E]	1
OC12COC(c3ccc4c(c3)OCO4)C1COC2c1ccc2c(c1)OCO2 (stereo not drawn)	-1
c1cc2c(cc1[C@H]1OC[C@H]3[C@@H]1CO[C@@H]3c1ccc3c(c1)OCO3)OCO2	-1

Please turn your attention to the following entry.
Given NC(=O)c1ncn([C@@H]2O[C@H](CO)[C@@H](O)[C@H]2O)n1 [Ribavirin, reference compound] , is recorded CC50 strictly lower than 90 µM?
-1
